biological target: PKC-delta (Homo sapiens); construct: purchased Calbiochem; assay: In vitro kinase assay: peptide phosphorylation by PKC-delta; assay type: biochemical; details: peptide concentration of 10 nM; percentage of phosphorylation of the best validating peptide substrate
Sequence (Q05655 whole entry): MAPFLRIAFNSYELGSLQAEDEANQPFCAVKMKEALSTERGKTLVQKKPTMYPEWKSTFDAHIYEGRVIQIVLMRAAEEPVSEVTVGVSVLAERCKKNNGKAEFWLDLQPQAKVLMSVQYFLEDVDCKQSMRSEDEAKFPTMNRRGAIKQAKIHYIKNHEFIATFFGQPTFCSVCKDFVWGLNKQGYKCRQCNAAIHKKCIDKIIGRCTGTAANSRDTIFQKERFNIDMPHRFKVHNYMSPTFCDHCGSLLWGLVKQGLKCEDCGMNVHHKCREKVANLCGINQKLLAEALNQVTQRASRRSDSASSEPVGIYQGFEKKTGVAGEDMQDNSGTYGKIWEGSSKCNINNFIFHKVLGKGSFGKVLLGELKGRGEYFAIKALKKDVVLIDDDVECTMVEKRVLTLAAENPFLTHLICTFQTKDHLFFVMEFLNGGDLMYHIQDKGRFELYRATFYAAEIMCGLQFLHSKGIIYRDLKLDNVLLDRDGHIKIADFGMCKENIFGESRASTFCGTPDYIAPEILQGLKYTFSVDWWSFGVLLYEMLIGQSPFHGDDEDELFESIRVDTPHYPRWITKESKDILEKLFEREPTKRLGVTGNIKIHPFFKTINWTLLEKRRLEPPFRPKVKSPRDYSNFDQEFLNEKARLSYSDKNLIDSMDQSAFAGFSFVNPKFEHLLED
// reported Measured in vitro phosphorylation by PKC-delta per item

Examples with their reported Measured in vitro phosphorylation by PKC-delta follow.
- substance: "29 (RKNDRKKRYTVVGNP) [compound 29]"
  target-under-test: "PKC-delta (Homo sapiens)"
  measured-value: "8%"
- substance: "32 (KATTKKRTLRKNDRK) [compound 32]"
  target-under-test: "PKC-delta (Homo sapiens)"
  measured-value: ">5%"

Record 31 (RKKRKKKSSKSLAHAGVALA) [compound 31] . Reported Measured in vitro phosphorylation by PKC-delta: >5%
